- SYSTEM TESTED: recombinant homotrimeric HA, A/Hong Kong/2108/03 H9N2 (Influenza A virus A/Hong Kong/2108/03 (H9N2))
- PROTOCOL NOTES: trimeric HA microarray, transfection set 2
- CONDITION NOTES: remark: other sources report otherwise
Provide the reported Trimeric HA Binding RLU of each item.
Give bare numbers, in RLU.

// batch mode: one Trimeric HA Binding RLU value per listed entry
1. TCN-527 (5086_C06) (antibody, V domains shown) VH: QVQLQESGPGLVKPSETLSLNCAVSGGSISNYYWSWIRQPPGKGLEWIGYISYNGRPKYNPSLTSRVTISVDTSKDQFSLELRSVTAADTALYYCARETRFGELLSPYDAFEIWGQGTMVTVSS VL: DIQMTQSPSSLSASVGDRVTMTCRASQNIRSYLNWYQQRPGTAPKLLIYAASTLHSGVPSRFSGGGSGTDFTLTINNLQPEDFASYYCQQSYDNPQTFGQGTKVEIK
2. TCN-563 (5237_B21) (antibody, V domains shown) VH: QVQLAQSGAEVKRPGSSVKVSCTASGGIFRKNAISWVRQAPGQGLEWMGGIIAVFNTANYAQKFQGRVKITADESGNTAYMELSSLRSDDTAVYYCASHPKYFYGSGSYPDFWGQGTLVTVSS VL: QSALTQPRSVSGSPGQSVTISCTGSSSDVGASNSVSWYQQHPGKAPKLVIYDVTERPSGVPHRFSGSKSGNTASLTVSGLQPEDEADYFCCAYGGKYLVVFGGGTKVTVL
3. TCN-523 (5248_A17) (antibody, V domains shown) VH: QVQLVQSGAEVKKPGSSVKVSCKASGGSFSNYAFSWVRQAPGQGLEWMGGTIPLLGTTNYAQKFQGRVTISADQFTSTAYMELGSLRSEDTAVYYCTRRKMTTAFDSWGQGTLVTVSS VL: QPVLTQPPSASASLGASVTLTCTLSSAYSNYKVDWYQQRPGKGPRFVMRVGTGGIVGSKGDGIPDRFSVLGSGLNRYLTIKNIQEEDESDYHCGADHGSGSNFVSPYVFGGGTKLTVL
4. TCN-528 (5087_P17) (antibody, V domains shown) VH: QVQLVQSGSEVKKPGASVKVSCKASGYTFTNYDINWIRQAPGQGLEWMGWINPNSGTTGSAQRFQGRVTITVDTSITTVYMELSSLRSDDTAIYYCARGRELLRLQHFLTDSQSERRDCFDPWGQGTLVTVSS VL: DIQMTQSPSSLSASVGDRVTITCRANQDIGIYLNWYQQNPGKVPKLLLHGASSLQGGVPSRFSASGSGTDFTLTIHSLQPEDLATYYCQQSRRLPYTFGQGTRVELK
5. TCN-504 (3251_K17) (antibody, V domains shown) VH: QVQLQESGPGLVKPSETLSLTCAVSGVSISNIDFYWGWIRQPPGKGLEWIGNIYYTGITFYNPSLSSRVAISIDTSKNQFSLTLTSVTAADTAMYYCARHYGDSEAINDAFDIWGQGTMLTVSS VL: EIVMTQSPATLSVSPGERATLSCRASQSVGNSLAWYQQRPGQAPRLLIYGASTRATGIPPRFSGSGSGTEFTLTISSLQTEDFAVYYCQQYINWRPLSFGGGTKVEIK

1: 25500; 2: 364; 3: 18; 4: 33600; 5: 23
